Values from patent US20100093719A1

# test system: PDE5 (Homo sapiens, UniProt O76074)
Kindly state IC50 for each of the entries shown.
Answer format reminder: number followed by unit.

>>> reported("CCCc1nc(C)c2c(=O)[nH]c(-c3cc(S(=O)(=O)N(C)[C@@H](C)C(=O)NC)ccc3OCC)nn12 [Compound 13]")
"0.17 nM"
>>> reported("CCCc1nc(C)c2c(=O)[nH]c(-c3cc(S(=O)(=O)N(C)C(C)(C)C(=O)NC)ccc3OCC)nn12 [Compound 15]")
"0.256 nM"

Provide each entry's IC50 from the list below.
1. CCCc1nc(C)c2c(=O)[nH]c(-c3cc(S(=O)(=O)N(C)[C@@H](C)C(=O)N(C)C)ccc3OCC)nn12 [Compound 12]
2. CCCc1nc(C)c2c(=O)[nH]c(-c3cc(S(=O)(=O)N4CCCC4C(=O)N(C)C)ccc3OCC)nn12 (stereo not shown) [Compound 5]

0.298 nM
2.3 nM

* * *

# test system: PDE-6
# assay summary: Phosphodiesterase inhibition PDE-6
metric name: IC50 (nM)
Give bare numbers, in nM.

Use these answered entries as a reference point.
>>> reported("CCCc1nc(C)c2c(=O)[nH]c(-c3cc(S(=O)(=O)N(C)CC(=O)N(C)C)ccc3OCC)nn12")
3.5
>>> reported("CCCc1nc(C)c2c(=O)[nH]c(-c3cc(S(=O)(=O)N(C)C(C)(C)C(=O)N(C)C)ccc3OCC)nn12")
1.7

// moving on: another record for IC50
Param readout = IC50; param system = PDE-6; param query = "CCCc1nc(C)c2c(=O)[nH]c(-c3cc(S(=O)(=O)N(C)[C@H](C)C(=O)N(C)C)ccc3OCC)nn12" ; response: value
0.605

* * *

# assay summary: Non-specific binding
# Type: in vitro ADME
metric name: Non-Spec Binding (%)
Give bare numbers, in %.

// solved cases for Non-Spec Binding follow
>>> reported("CCCc1nc(C)c2c(=O)[nH]c(-c3cc(S(=O)(=O)N(C)CC(=O)N(C)CC(=O)N(C)C)ccc3OCC)nn12")
7
>>> reported("CCCc1nc(C)c2c(=O)[nH]c(-c3cc(S(=O)(=O)N(C)CC(=O)N(C)C)ccc3OCC)nn12")
11.07
>>> reported("CCCc1nc(C)c2c(=O)[nH]c(-c3cc(S(=O)(=O)N(C)C(C)(C)C(=O)N(C)C)ccc3OCC)nn12")
14.3
>>> reported("CCCc1nc(C)c2c(=O)[nH]c(-c3cc(S(=O)(=O)N(C)CC(=O)N(CC)CC)ccc3OCC)nn12")
19
>>> reported("CCCc1nc(C)c2c(=O)[nH]c(-c3cc(S(=O)(=O)N(C)CC(=O)N(C)CCN(C)C)ccc3OCC)nn12")
9.8

Each of the following entries comes with a recorded value; kindly state Non-Spec Binding for each.
1. CCCc1nc(C)c2c(=O)[nH]c(-c3cc(S(=O)(=O)N(C)[C@@H](C)C(=O)N(C)C)ccc3OCC)nn12
2. CCCc1nc(C)c2c(=O)[nH]c(-c3cc(S(=O)(=O)N(C)[C@H](C)C(=O)N(C)C)ccc3OCC)nn12

30.7
20.7

Value sought for every listed molecule: Non-Spec Binding.
1. CCCc1nc(C)c2c(=O)[nH]c(-c3cc(S(=O)(=O)N(C)CC(=O)N4CCN(C)CC4)ccc3OCC)nn12
2. CCCc1nc(C)c2c(=O)[nH]c(-c3cc(S(=O)(=O)N(C)CC(=O)N4CCOCC4)ccc3OCC)nn12

1. 2.6
2. 7.3

* * *

I'd be grateful if you could share measured Caco-2 AtoB for these entries.
# Test system: Caco-2
# assay summary: Caco-2 permeability
# Type: in vitro ADME
# applied conditions: AtoB

// solved cases for Caco-2 AtoB follow
>>> reported("CCCc1nc(C)c2c(=O)[nH]c(-c3cc(S(=O)(=O)N(C)CC(=O)N4CCN(C)CC4)ccc3OCC)nn12")
"4.35 10^−6"
>>> reported("CCCc1nc(C)c2c(=O)[nH]c(-c3cc(S(=O)(=O)N(C)CC(=O)NC)ccc3OCC)nn12")
"5.15 10^−6"
>>> reported("CCCc1nc(C)c2c(=O)[nH]c(-c3cc(S(=O)(=O)N4CCCC4C(=O)N(C)C)ccc3OCC)nn12 (stereo not shown)")
"19.4 10^−6"

Hello, I would appreciate it if you could give Caco-2 AtoB for each entry below.
1. CCCc1nc(C)c2c(=O)[nH]c(-c3cc(S(=O)(=O)N(C)C(C)(C)C(=O)N(C)C)ccc3OCC)nn12
2. CCCc1nc(C)c2c(=O)[nH]c(-c3cc(S(=O)(=O)N(C)CC(=O)N4CCOCC4)ccc3OCC)nn12
3. CCCc1nc(C)c2c(=O)[nH]c(-c3cc(S(=O)(=O)N(C)[C@H](C)C(=O)N(C)C)ccc3OCC)nn12
4. CCCc1nc(C)c2c(=O)[nH]c(-c3cc(S(=O)(=O)N(C)CC(=O)N(C)CCN(C)C)ccc3OCC)nn12

1: 28.85 10^−6; 2: 11.16 10^−6; 3: 33.33 10^−6; 4: 2.33 10^−6

* * *

# assay summary: PAMPA permeability
# Type: in vitro ADME
# applied conditions: Hex
metric name: PAMPA Hex

Examples with answers:
>>> reported("CCCc1nc(C)c2c(=O)[nH]c(-c3cc(S(=O)(=O)N(C)C(C)(C)C(=O)N(C)C)ccc3OCC)nn12")
"9.11 10^−6"
>>> reported("CCCc1nc(C)c2c(=O)[nH]c(-c3cc(S(=O)(=O)N(C)CC(=O)N(C)C)ccc3OCC)nn12")
"5.49 10^−6"
>>> reported("CCCc1nc(C)c2c(=O)[nH]c(-c3cc(S(=O)(=O)N(C)CC(=O)NC)ccc3OCC)nn12")
"0.24 10^−6"
>>> reported("CCCc1nc(C)c2c(=O)[nH]c(-c3cc(S(=O)(=O)N(C)C4(C(=O)N(C)C)CC4)ccc3OCC)nn12")
"3.41 10^−6"
>>> reported("CCCc1nc(C)c2c(=O)[nH]c(-c3cc(S(=O)(=O)N(C)CC(=O)N(CC)CC)ccc3OCC)nn12")
"21.81 10^−6"
>>> reported("CCCc1nc(C)c2c(=O)[nH]c(-c3cc(S(=O)(=O)N[C@@H](C)C(=O)N(C)C)ccc3OCC)nn12")
"0.26 10^−6"

Record PAMPA Hex per entry; entries follow.
1. CCCc1nc(C)c2c(=O)[nH]c(-c3cc(S(=O)(=O)N(C)CC(=O)N(C)CC(=O)N(C)C)ccc3OCC)nn12
2. CCCc1nc(C)c2c(=O)[nH]c(-c3cc(S(=O)(=O)N(C)CC(=O)N4CCN(C)CC4)ccc3OCC)nn12
3. CCCc1nc(C)c2c(=O)[nH]c(-c3cc(S(=O)(=O)N(C)C(C)(C)C(=O)NC)ccc3OCC)nn12
4. CCCc1nc(C)c2c(=O)[nH]c(-c3cc(S(=O)(=O)N[C@H](C)C(=O)N(C)C)ccc3OCC)nn12

["0.47 10^−6", "0.18 10^−6", "0.25 10^−6", "0.18 10^−6"]

List PAMPA Hex for every entry below, keeping the order given.
1. CCCc1nc(C)c2c(=O)[nH]c(-c3cc(S(=O)(=O)NC(C)(C)C(=O)N(C)C)ccc3OCC)nn12
2. CCCc1nc(C)c2c(=O)[nH]c(-c3cc(S(=O)(=O)N4CCCC4C(=O)N(C)C)ccc3OCC)nn12 (stereo not drawn)

1. 0.17 10^−6
2. 13.18 10^−6

* * *

# assay summary: RLM stability T1/2
# Type: in vitro ADME
# applied conditions: rat, liver microsomes
So basically: half-life at 30 min or higher? That is condition met. Lower than 30 min? That is condition not met.

Would you please look over these solved cases?
>>> category_label("CCCc1nc(C)c2c(=O)[nH]c(-c3cc(S(=O)(=O)N(C)CC(=O)N(C)C)ccc3OCC)nn12 [Compound 1]")
"condition not met"
>>> category_label("CCCc1nc(C)c2c(=O)[nH]c(-c3cc(S(=O)(=O)N(C)CC(=O)N(CC)CC)ccc3OCC)nn12 [Compound 8]")
"condition not met"
>>> category_label("CCCc1nc(C)c2c(=O)[nH]c(-c3cc(S(=O)(=O)N(C)C(C)(C)C(=O)N(C)C)ccc3OCC)nn12 [Compound 3]")
"condition met"
>>> category_label("CCCc1nc(C)c2c(=O)[nH]c(-c3cc(S(=O)(=O)N(C)[C@H](C)C(=O)N(C)C)ccc3OCC)nn12 [Compound 2]")
"condition met"
>>> category_label("CCCc1nc(C)c2c(=O)[nH]c(-c3cc(S(=O)(=O)N(C)[C@@H](C)C(=O)N(C)C)ccc3OCC)nn12 [Compound 12]")
"condition met"

Is half-life for CCCc1nc(C)c2c(=O)[nH]c(-c3cc(S(=O)(=O)N(C)CC(=O)N(C)CC(=O)N(C)C)ccc3OCC)nn12 [Compound 4] at or above 30 min?
condition met
